target: T1, Mouse-Fc-tagged SARS-CoV2 S1-RBD (Sino Biologicals) recombinant protein (SARS-CoV-2, UniProt P0DTC2 319-541); experiment: SPR, S1-RBD-mFc captured via anti-mouse-Fc antibody, 1:1 model
T1 construct: domain: S1-RBD
measured_endpoint: koff (s⁻¹)

INSERT INTO assay_data (binder, result_value) VALUES
  ('P043.A.00017.E04 (antibody, V domains shown) VH: QSVEESGGRLVTPGTPLTLTCTVSGFSLNNYAMNWVRQAPGKGLEWIGIISSSGNTYYANWAKGRFTISKTSTTVDLKITSPTTEDTATYFCARDSYPGYSPYYGMDPWGPGTLVTVSS VL: AIQMTQSPSSLAASVGDTVTITCKASEDIAYGLNWYQQKLGITPKLLIYGANTLESGVPSRFSGSGSETHYTLTISSVQAEDAGIYYCQQGYNTPPTFGAGTKVEIK', 0.000327),
  ('P043.A.00020.D06 (protein sample ID 444) (antibody, V domains shown) VH: QSVEESGGRLVTPGTPLTLTCTVSGFSLSSYAMNWVRQAPGKGLEWIGIISSSGSTYYASWAKGRFTISKTSTTVDLKITSPTTEDTATYFCARVGAGYAGYGYDNYYGMDPWGPGTLVTVSS VL: AIQMTQSPSSLAASVGDTVTITCKASEDIGYGLNWYQQKLGIAPKLLIYGANTLESGVPSRFSGSGSETDYTLTISSVQAEDAGIYYCQQGYSTPLTFGAGTKVEIK', 0.00032);
